Target: T1, Carboxypeptidase R (CPR) (human, UniProt Q96IY4 115-423)
T1 construct: domain: 309-amino acid enzyme (CPR; 35 kDa) after cleavage at Arg92; also called plasma carboxypeptidase B (CPB); carboxypeptidase U (CPU)
T1 sequence (looked up): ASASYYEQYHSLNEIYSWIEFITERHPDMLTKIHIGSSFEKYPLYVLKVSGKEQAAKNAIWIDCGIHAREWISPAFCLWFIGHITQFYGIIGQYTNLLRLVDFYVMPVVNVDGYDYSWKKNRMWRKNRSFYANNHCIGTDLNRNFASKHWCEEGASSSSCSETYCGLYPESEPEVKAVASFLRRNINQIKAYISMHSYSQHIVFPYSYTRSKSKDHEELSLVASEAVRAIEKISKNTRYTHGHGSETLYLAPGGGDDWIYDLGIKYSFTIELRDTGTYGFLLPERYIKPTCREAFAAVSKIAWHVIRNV
Assay: enzyme kinetics, CPR hydrolysis of hippuryl-L-arginine, Lineweaver-Burke at 253 nM inhibitor
Ends that are not written are not given here.

{"columns": ["Binder", "U", "Ki"],
 "data": [
  ["CKPAKNARC-NH2 (cysteine pairing not given here, Linear form, no disulfide between the terminal Cys residues) [CPI-2KR (linear 9-mer peptide Cys-Lys-Pro-Ala-Lys-Asn-Ala-Arg-Cys)]", "nM", 8.8]
]}
